- test.protocol: Volume of distribution was determined in dogs at 0.46 mg/kg, iv
- Type: ADME, organism-based, Canis lupus familiaris
- Set-up: dose 0.46 mg/kg, route intravenous
- condition.description: dog, in vivo, read-out: Vdss
readout.label: Vd (L/kg)
Give bare numbers, in L/kg.

Fill in Vd for record CCOC(=O)[C@]1(Cc2ccccc2)CCCN(C(=O)[C@@H](Cc2c[nH]c3ccccc23)NC(=O)C(C)(C)N)C1 1.3

----------
- test.protocol: Clearance rate at 5.5 mg/kg, iv, in rat
- Format: ADME, organism-based
- Set-up: dose 5.5 mg/kg
- condition.description: in vivo
readout.label: clearance (mL/min/kg)
Give bare numbers, in mL/min/kg.

Fill in clearance for record CCOC(=O)[C@]1(Cc2ccccc2)CCCN(C(=O)[C@@H](Cc2c[nH]c3ccccc23)NC(=O)C(C)(C)N)C1 206
